Field: inhibition. Provide a value for each of the molecules that follow.
molecular target: Solute carrier family 2, facilitated glucose transporter member 1 (Homo sapiens); assay: ST_JUDE_LEISH: Cytotoxicity at 2uM final concentration against transgenic Leishmania Mexicana promastigotes LmGLUT1 that are glucose transport deficient and complemented with the human glucose transporter GLUT1. Activity is measured by DNA content using SYBR green in vitro; type: functional
Only the number, expressed in %, is required.

Readout inhibition for COC(=O)c1ccc(CC(C)NCC(O)c2ccc(Cl)c(Cl)c2)cc1 (centres undefined) , test system Solute carrier family 2, facilitated glucose transporter member 1 (Homo sapiens), was 6.46

Readout inhibition for CC[C@H]1CN2CC[C@@H]1C[C@H]2[C@H](O)c1cc(N2CCC(CO)CC2)nc2ccc(OC)cc12 , test system Solute carrier family 2, facilitated glucose transporter member 1 (Homo sapiens), was 1.5

Readout inhibition for CC(C)CNCc1cccc(-c2ccc(CN(C(=O)Nc3ccccc3)C3CCN(Cc4ccccc4)CC3)cc2)c1 , test system Solute carrier family 2, facilitated glucose transporter member 1 (Homo sapiens), was 2.16

Readout inhibition for O=C(/C=C/c1ccc(Cl)c(Cl)c1)N(Cc1ccccc1)C1CCC(CN2CCC(c3c[nH]c4ccccc34)CC2)CC1 (centres undefined) , test system Solute carrier family 2, facilitated glucose transporter member 1 (Homo sapiens), was 4.82

Readout inhibition for CC[C@H]1CN2CC[C@@H]1C[C@H]2[C@H](O)c1cc(N2CCSCC2)nc2ccc(OC)cc12 , test system Solute carrier family 2, facilitated glucose transporter member 1 (Homo sapiens), was 3.55

Readout inhibition for COC(=O)c1ccc(CC(C)NCC(O)c2cccc(SC(F)(F)F)c2)cc1 (centres undefined) , test system Solute carrier family 2, facilitated glucose transporter member 1 (Homo sapiens), was 2.85

Readout inhibition for Cc1nc(-c2ccc(-c3ccc(C(=O)Nc4ccc5c(c4)C4(CCNCC4)CO5)cc3)c(C)c2)no1 , test system Solute carrier family 2, facilitated glucose transporter member 1 (Homo sapiens), was 2.05

Readout inhibition for CN1CC=C(c2c[nH]c3ccc(OCc4ccccc4)cc23)CC1 , test system Solute carrier family 2, facilitated glucose transporter member 1 (Homo sapiens), was 16.2

Readout inhibition for CCC1(C)N=C(N)N=C(N)N1c1ccc(Cl)cc1 (centres undefined) , test system Solute carrier family 2, facilitated glucose transporter member 1 (Homo sapiens), was 3.87

Readout inhibition for CC(Cc1ccc(OCc2ccc(CCN(C)C)cc2)cc1)NCCc1cccc(Cl)c1 (centres undefined) , test system Solute carrier family 2, facilitated glucose transporter member 1 (Homo sapiens), was 1.8

Readout inhibition for Cc1ccc(CC(C)(C)NCC(O)c2cccc(C(F)(F)F)c2)cc1 (centres undefined) , test system Solute carrier family 2, facilitated glucose transporter member 1 (Homo sapiens), was 2.49

Readout inhibition for O=C(c1ccccc1)C1CC1CN1CC=C(c2c[nH]c3ccccc23)CC1 (centres undefined) , test system Solute carrier family 2, facilitated glucose transporter member 1 (Homo sapiens), was 2.08

Readout inhibition for CN(c1cc(NC(=O)c2cccs2)ccn1)C1CCN(Cc2ccccc2)CC1 , test system Solute carrier family 2, facilitated glucose transporter member 1 (Homo sapiens), was 0.59

Readout inhibition for CC1=CC(=O)[C@@H](O)[C@]2(C)[C@H]3[C@@]4(O)OC[C@@]35[C@@H](C[C@@H]12)OC(=O)C[C@H]5[C@@H](C)[C@H]4O , test system Solute carrier family 2, facilitated glucose transporter member 1 (Homo sapiens), was 7.27

Readout inhibition for CC(=O)C1(c2ccccc2)CCN(CCC2(c3ccc(Cl)c(Cl)c3)CN(C(=O)C3CCCCC3)CCO2)CC1 (centres undefined) , test system Solute carrier family 2, facilitated glucose transporter member 1 (Homo sapiens), was 4.85

Readout inhibition for C#CCN1CCC2=C(C1)c1c(O)cc(C(C)CCCc3ccc(F)cc3)cc1OC2(C)C (centres undefined) , test system Solute carrier family 2, facilitated glucose transporter member 1 (Homo sapiens), was 1.13

Readout inhibition for CCC1(C)CC(CCNCc2ccccc2O)(c2ccc(F)cc2)CCO1 (centres undefined) , test system Solute carrier family 2, facilitated glucose transporter member 1 (Homo sapiens), was 0.23

Readout inhibition for CCOC(=O)c1c(CN2CCN(C)CC2)n(Cc2ccccc2)c2cc(Br)c(O)cc12 , test system Solute carrier family 2, facilitated glucose transporter member 1 (Homo sapiens), was 17.4

Readout inhibition for O=C(/C=C/c1ccc(Cl)c(Cl)c1)N1CCC(CN2CCC(c3cn(CC(=O)N4CCCCC4)c4ccccc34)CC2)CC1 , test system Solute carrier family 2, facilitated glucose transporter member 1 (Homo sapiens), was 2.63

// provenance: ChEMBL document CHEMBL3433997
